The reported numbers originate from ChEMBL document CHEMBL3826887.

System: Escherichia coli
Test: Antibacterial activity against Escherichia coli W3110
Format: functional
measurement.label: MIC (µM)

| molecule | qualifier.operator | measured.result |
| --- | --- | --- |
| Nc1cccc(NC(=O)Nc2ccccc2)c1 | > | 3000 |
| CN(C(=O)N(C)c1cccc(NC(=O)CN)c1)c1ccccc1 | = | 2000 |
| NCC(=O)Nc1cccc(NC(=O)Nc2ccccc2)c1 | = | 2000 |
| CN(C(=O)N(C)c1cccc(NC(=O)c2ccncc2)c1)c1ccccc1 | = | 2000 |
| CN(C(=O)N(C)c1ccccc1)c1ccccc1 | > | 3000 |
| O=C(Nc1ccccc1)Nc1ccccc1 [DIPHENYLUREA] | > | 3000 |
| CN(C(=O)N(C)c1cccc(N)c1)c1ccccc1 | > | 3000 |

====

Test system: Staphylococcus aureus
Assay: Membrane permeabilisation in Staphylococcus aureus UL12 assessed as NPN uptake at 2mM incubated for 1 hr by spectrofluorometric analysis
Format: functional
Recorded Activity values for a group of molecules are listed next.

| molecule | target | Activity / % |
| --- | --- | --- |
| CN(C(=O)N(C)c1cccc(NC(=O)CN)c1)c1ccccc1 | Staphylococcus aureus | 40.6 |
| O=C(Nc1ccccc1)Nc1ccccc1 [DIPHENYLUREA] | Staphylococcus aureus | 46.01 |
| NCC(=O)Nc1cccc(NC(=O)Nc2ccccc2)c1 | Staphylococcus aureus | 69.56 |
| CN(C(=O)N(C)c1cccc(N)c1)c1ccccc1 | Staphylococcus aureus | 46.26 |
| CN(C(=O)N(C)c1cccc(NC(=O)c2ccncc2)c1)c1ccccc1 | Staphylococcus aureus | 50.59 |
| CN(C(=O)N(C)c1ccccc1)c1ccccc1 | Staphylococcus aureus | 43.82 |
| Nc1cccc(NC(=O)Nc2ccccc2)c1 | Staphylococcus aureus | 38.91 |

====

Recorded measurements of Activity, one per entry
Tested on: Escherichia coli
Assay: Membrane permeabilisation in Escherichia coli W3110 assessed as NPN uptake at 2mM incubated for 1 hr by spectrofluorometric analysis
Type: functional

| smiles.string | Activity, % |
| --- | --- |
| O=C(Nc1ccccc1)Nc1ccccc1 | 45.29 |
| CN(C(=O)N(C)c1cccc(N)c1)c1ccccc1 | 40.18 |
| NCC(=O)Nc1cccc(NC(=O)Nc2ccccc2)c1 | 47.09 |
| CN(C(=O)N(C)c1cccc(NC(=O)CN)c1)c1ccccc1 | 42.47 |
| CN(C(=O)N(C)c1ccccc1)c1ccccc1 | 40.75 |
| Nc1cccc(NC(=O)Nc2ccccc2)c1 | 33.93 |
| CN(C(=O)N(C)c1cccc(NC(=O)c2ccncc2)c1)c1ccccc1 | 49.57 |

====

Test system: Lipid bilayer
Test: Induction of membrane lysis in Staphylococcus aureus UL12 lipid vesicles assessed as calcein release at 1500 uM by spectrofluorometric analysis
Format: functional
Property: Activity; scope: individual molecules

| smiles.string | Activity |
| --- | --- |
| O=C(Nc1ccccc1)Nc1ccccc1 | 18.3% |
| CN(C(=O)N(C)c1ccccc1)c1ccccc1 | 15.1% |
| CN(C(=O)N(C)c1cccc(N)c1)c1ccccc1 | 21.2% |
| NCC(=O)Nc1cccc(NC(=O)Nc2ccccc2)c1 | 31.2% |
| Nc1cccc(NC(=O)Nc2ccccc2)c1 | 13.8% |
| CN(C(=O)N(C)c1cccc(NC(=O)CN)c1)c1ccccc1 | 15.3% |
| CN(C(=O)N(C)c1cccc(NC(=O)c2ccncc2)c1)c1ccccc1 | 53.1% |

====

Test system: Lipid bilayer
Assay: Induction of membrane lysis in Escherichia coli W3110 lipid vesicles assessed as calcein release at 1500 uM by spectrofluorometric analysis
Format: functional
Tick yes (1) if Activity is 8% or greater. Tick no (0) if Activity is less than 8%.

| smiles.string | assigned.class |
| --- | --- |
| NCC(=O)Nc1cccc(NC(=O)Nc2ccccc2)c1 | yes (1) |
| CN(C(=O)N(C)c1cccc(NC(=O)c2ccncc2)c1)c1ccccc1 | yes (1) |
| O=C(Nc1ccccc1)Nc1ccccc1 | yes (1) |
| Nc1cccc(NC(=O)Nc2ccccc2)c1 | no (0) |
| CN(C(=O)N(C)c1ccccc1)c1ccccc1 | no (0) |
| CN(C(=O)N(C)c1cccc(NC(=O)CN)c1)c1ccccc1 | yes (1) |

====

Test system: Lipid bilayer
Experiment: Induction of membrane lysis in Escherichia coli W3110 lipid vesicles assessed as calcein release at 93.73 uM by spectrofluorometric analysis
Assay type: functional

| compound | Activity |
| --- | --- |
| CN(C(=O)N(C)c1cccc(N)c1)c1ccccc1 | 2.3% |
| CN(C(=O)N(C)c1ccccc1)c1ccccc1 | 0.82% |
| CN(C(=O)N(C)c1cccc(NC(=O)CN)c1)c1ccccc1 | 8.45% |
| Nc1cccc(NC(=O)Nc2ccccc2)c1 | 0.15% |
| CN(C(=O)N(C)c1cccc(NC(=O)c2ccncc2)c1)c1ccccc1 | 24.1% |
| O=C(Nc1ccccc1)Nc1ccccc1 [DIPHENYLUREA] | 3.17% |
| NCC(=O)Nc1cccc(NC(=O)Nc2ccccc2)c1 | 1.1% |
